Test Summary: Caspase-3/7 induction in HepG2 cells by small molecules, qHTS cell viability counter screen (AID 1346981); also: nearly all actives have a fitted effect of over 30% in size
Measurement Context: CellTiter-Fluor fluorescence, 17 h; series mostly up to 92.4 µM
Inconclusive results are not listed. The source made the active and inactive calls. Calls follow the shape of the dose curve; as a rule, active = well fitted cell-killing curve with a large enough effect in the repeat runs; inconclusive = weak or mixed curves, or effect the other way; inactive = flat fitted curve, though single readings scatter.
Choose one outcome from this list and give only that: Y for active, N for inactive

Examples from the recorded data:
CCOC(=O)NC(=S)Nc1ccccc1NC(=S)NC(=O)OCC : N
O=[N+]([O-])c1cc(Cl)c(Cl)c(Cl)c1 : N
C[C@]1(O)CC[C@H]2[C@@H]3CCC4=CC(=O)CC[C@]4(C)[C@@]3(F)[C@@H](O)C[C@@]21C : N
N#CC(CCc1ccc(Cl)cc1)(Cn1cncn1)c1ccccc1 (configuration not stated) : Y
Nc1ccccc1Cl : N
COC(=O)C(c1ccccc1)C1CCCCN1 (configuration not stated) : N

Continue with the molecule presented below.
Task: Please indicate how the test categorized CCCCN(CCCCO)N=O .
Result: N

----------
Test Summary: qHTS assay for small molecule activators of the heat shock response signaling pathway (AID 743210);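 also: HeLa cells with beta-lactamase reporter driven by heat shock elements; % is scaled to controls: 0 for no effect and ±100 for the full control effect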
Measurement Context: HeLa HSE-bla reporter, beta-lactamase ratio, 5 h; series mostly up to 62.6 µM
Inconclusive results are not listed. Activity calls are given as the source filed them. Calls come from the whole dose curve; as a rule, active = well fitted activation curve with a large enough effect in the signal ratio in the repeat runs, with a control signal flat (not every such curve was filed as active); inconclusive = weak or mixed curves; inactive = flat fitted curve, though single readings scatter; the % refers to the signal ratio.
Measured Quantity: outcome

C[C@]12CC[C@H]3[C@@H](CCC4=CC(=O)CC[C@@]43C)[C@@H]1CC[C@@H]2C(=O)O : inactive
O=C1c2ccccc2C(=O)c2ccccc21 : inactive
C[N+](=O)[O-] : inactive
CC(Oc1ccc(Oc2ncc(C(F)(F)F)cc2Cl)cc1)C(=O)O (centres undefined) : inactive
CC(CC(C#N)(c1ccccc1)c1ccccc1)N(C)C (centres undefined) : inactive
ClCCOCOCCCl : inactive
N#CCCC#N : inactive
CN(C)CCc1ccc(O)cc1 : inactive

Hi, could you look up outcome for each item in my list?
1. CC1(C(=O)Nc2ccc(O)c(Cl)c2Cl)CCCCC1
2. COc1ncc(F)c2nc(S(=O)(=O)Nc3c(F)cccc3F)nn12
3. CC1COC2(c3ccccc3Cl)c3cc(Cl)ccc3NC(=O)CN12 (centres undefined)
4. CCOP(=S)(OCC)SCSP(=S)(OCC)OCC
5. CCCCP(CCCC)CCCC
6. CC(C)(C)NCC(O)c1cc(Cl)c(N)c(Cl)c1 (centres undefined)

Result:
inactive
inactive
inactive
inactive
inactive
inactive

----------
Test Summary: qHTS RealTime-Glo MT Cell Viability Assay in HEK293 cells - 40 hour (AID 1224874); also: % is scaled to controls: 0 for no effect and ±100 for the full control effect; nearly all actives have a fitted effect of over 50% in size
Measurement Context: RealTime-Glo luminescence; active compounds read low
Text: U.S. Tox21 Program National Center for Advancing Translational Sciences [NCATS] NIH Chemical Genomics Center [NCGC] U.S. Environmental Protection Agency [EPA] National Institutes of Environmental Health Sciences [NIEHS] National Toxicology Program [NTP] U.S. Food and Drug Administration [FDA] Tox21 Assay Overview: Measure of cell viability is critical in the cell-base assay. Analysis of cell viability is necessary for the characterization of cell responses to cytotoxic drugs and environmental stress. […]
Records with an inconclusive call do not appear.
Measured Quantity: max response (%)
Numbers only, in %.

O=C(Oc1ccc(Br)cc1)N1CCN2CCC1CC2 : -0.781
CCC(=O)C(CCN(C)C)(c1ccccc1)c1ccccc1 : -20.5
Clc1cccc(N2CCNCC2)c1 : 8.54
CCCCP(CCCC)CCCC : -4.34

// for each compound below, give its max response
1. C=C(C)[C@@H]1CC=C(C=O)CC1
2. Cc1nnc2n1-c1sc(CCC(=O)N3CCOCC3)cc1C(c1ccccc1Cl)=NC2
3. C[N+](=O)[O-]
4. NC(=S)C(N)=S
5. C#CCN1C(=O)COc2cc(F)c(N3C(=O)C4=C(CCCC4)C3=O)cc21
6. CCOP(=O)(OCC)OP(=O)(OCC)OCC
7. CCCSC(=O)N(CCC)CCC

Result:
1: -6.37; 2: -16.7; 3: 18.3; 4: 4.8; 5: 2.01; 6: 5.24; 7: 7.77

Could I get max response for every one of these entries?
1. O=S(=O)(O)C(F)(F)C(F)(F)C(F)(F)C(F)(F)C(F)(F)C(F)(F)F
2. Cc1ncc(CNC(=O)N(CCCl)N=O)c(N)n1
3. COCC(=O)N(c1c(C)cccc1C)N1CCOC1=O

Result:
1: 2.43; 2: 2.69; 3: 0.893

----------
Test Summary: qHTS RealTime-Glo MT Cell Viability Assay in HEK293 cells - 8 hour (AID 1224887); also: nearly all actives have a fitted effect of over 50% in size
Measurement Context: RealTime-Glo luminescence; series mostly up to 76.8 µM
Records with an inconclusive call do not appear. The source made the active and inactive calls. The call rests on the fitted dose curve; in most records, active means well fitted cell-killing curve with a large enough effect in the repeat runs; inconclusive means weak or mixed curves, or effect the other way; inactive means flat fitted curve, though single readings scatter.
// one of T = active, F = inactive, no free text

Completed entries (count: 5):
CN1CCC(N(Cc2ccccc2)c2ccccc2)CC1 : F
COC(=O)c1ccccc1S(=O)(=O)NC(=O)N(C)c1nc(C)nc(OC)n1 : F
CCCCc1c(C)nc(NCC)[nH]c1=O : T
CNC(=O)Oc1ccc(N(C)C)c(C)c1 : F
CNC(=O)O/N=C(\C)SC : F

Task: Dear colleague, could you share the recorded outcome for CC(=O)Nc1cc([As](=O)(O)O)ccc1O when you have a moment?
Result: F

----------
Test Summary: qHTS assay to identify small molecule agonists of H2AX - cell viability counter screen (AID 1224847); also: nearly all actives have a fitted effect of over 30% in size
Measurement Context: CHO-K1 viability, CellTiter-Glo luminescence, 3 h; series mostly up to 154 µM
Records with an inconclusive call do not appear. Activity calls are given as the source filed them. The call rests on the fitted dose curve.
Form entry, call: pick from t for active, f for inactive

Cc1ncc(CNC(=O)N(CCCl)N=O)c(N)n1 : f
CCCCCCBr : f
O=C(Cc1ccccc1)OCc1ccccc1 : f
CCC1(c2ccccc2)C(=O)NC(=O)NC1=O : f
CCC#N : f

Task: Dear all, I need the recorded test outcome for CNNC , thank you.
Result: f

Task: I would be grateful if you could indicate the recorded call for ClC(Cl)Br .
Result: f

Task: Status in this test for O=C1OC(c2ccc(O)c(S(=O)(=O)O)c2)(c2ccc(O)c(S(=O)(=O)O)c2)c2c(Br)c(Br)c(Br)c(Br)c21 ?
Result: f

Task: What is the recorded call for this molecule in the test? Nc1cnn(-c2ccccc2)c(=O)c1Cl
Result: f

Task: # fetch the recorded call for O=[N+]([O-])c1ccc2c3c(cccc13)CC2 here
Result: f

Task: Check the results log: what was the call for O=NN1CCCCC1 ?
Result: f

Task: Hi, sorry to bother you, what did the test record for COc1cccc2c1cc([N+](=O)[O-])c1c(C(=O)O)cc3c(c12)OCO3 ?
Result: f

Task: Recorded test call requested for C=CCC1=C(C)[C@@H](OC(=O)[C@@H]2[C@@H](C=C(C)C)C2(C)C)CC1=O
Result: t

Task: What did the test return for N#CC(O)c1ccccc1 (centres undefined) ?
Result: f

----------
Test Summary: qHTS assay to identify small molecule agonists or antagonists of the thyroid stimulating hormone receptor (TSHR) signaling pathway - wild type cell line counter screen (AID 1259384); also: % is scaled to controls: 0 for no effect and ±100 for the full control effect
Measurement Context: HEK293 wild type, cAMP HTRF counter-screen; series mostly up to 92.4 µM
Results filed as inconclusive are left out. Calls of active or inactive are those of the source. Calls come from the whole dose curve.
Log the outcome using a class from active, inactive

CC(C)CP(=S)(S)CC(C)C : inactive

Task: Would you mind telling me which call this test gave COc1cc(OC)nc(Sc2cccc(Cl)c2C(=O)O)n1 ?
Result: inactive

Task: What call does the record list for CNC(=O)Oc1c(C(C)(C)C)cc(C)cc1C(C)(C)C ?
Result: inactive

----------
Test Summary: qHTS assay to identify small molecule antagonists of the estrogen receptor alpha (ER-alpha) signaling pathway using the BG1 cell line (AID 743080);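 also: BG1 cells stimulated with 17beta-estradiol alongside compound; % is scaled to controls: 0 for no effect and ±100 for the full control effect; nearly all actives have a fitted effect of over 25% in size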
Measurement Context: BG1Luc4E2 ERE-luciferase antagonist mode, luminescence; series mostly up to 70.3 µM
Records with an inconclusive call do not appear. The source made the active and inactive calls. Calls come from the whole dose curve.
Measured Quantity: outcome

Reference set, count: 5
CCCSC(=O)Cl : inactive
N#CCBr : inactive
ClC(Cl)C(Cl)Cl : inactive
CNC(=O)Oc1ccc(N(C)C)c(C)c1 : inactive
ClC(Br)Br : inactive

For each listed entry, give its outcome.
1. O=C(CCCN1CCC(n2c(=O)[nH]c3ccccc32)CC1)c1ccc(F)cc1
2. CCCSP(=S)(OCC)Oc1ccc(Cl)cc1Cl (stereo not given)
3. O=[N+]([O-])c1ccc2c3c(cccc13)CC2
4. CCC1(c2ccccc2)C(=O)N=C(O)NC1=O (stereo not given)
5. CNNC

Result:
["inactive", "inactive", "inactive", "inactive", "inactive"]

Below are some compounds; for each one, tell me its outcome.
1. [O]=[Cd]
2. CC(=O)CCc1ccc2c(c1)OCO2
3. O=S(=O)(O)C(F)(F)C(F)(F)C(F)(F)C(F)(F)C(F)(F)C(F)(F)F
4. CCCCCCI
5. COC(=O)c1c(C(F)F)nc(C(F)(F)F)c(C2=NCCS2)c1CC(C)C

Result:
1. inactive
2. inactive
3. inactive
4. inactive
5. inactive
